- System: MDA-MB-231 breast
- Assay notes: NCI tumour cell line growth inhibition, 48 h

Molecule	Tested target	Unit abbreviation	TGI
CCC/C=C/c1cc2c(cc1O)CC[C@@H]1[C@@H]2CC[C@]2(C)[C@@H](O)CC[C@@H]12	MDA-MB-231 breast	µM	33.7
COc1cc(/C=N\N(C)C)cc(/C=N/N(C)C)c1O	MDA-MB-231 breast	µM	80
C[N+]1=C(/C=C/c2ccc(O)c3ncccc23)C(C)(C)c2ccccc21	MDA-MB-231 breast	µM	11
O=c1oc2ccccc2cc1-c1csc(Nc2ccc(F)cc2)n1	MDA-MB-231 breast	µM	26
Cc1ccc(-c2nc3nc(-c4ccccc4)nc(N4CCCNCC4)c3o2)cc1	MDA-MB-231 breast	µM	3.32
Nc1nc(Cl)c(CO)c(NCC2(CO)CC(CCc3ccccc3)C2)n1 (stereo unspecified)	MDA-MB-231 breast	µM	39.1
C/C(Cl)=N/OC(=O)Nc1ccc(S(N)(=O)=O)c(C)c1	MDA-MB-231 breast	µM	22
O=C(O)/C=C(\c1nc2ccc([N+](=O)[O-])cc2[nH]1)c1cc(Cl)ccc1O	MDA-MB-231 breast	µM	9.25
Clc1ccccc1-c1nc2ccc(C34CC5CC(CC(C5)C3)C4)cc2[nH]1	MDA-MB-231 breast	µM	37.9
COC1(C)CP(=O)(OC(C)C)CC(C)=C1Cl (stereo unspecified)	MDA-MB-231 breast	µM	34.1
CCC(C)(C)C1CCC2c3c([nH]c4ccccc34)C3C(=O)N(c4ccc(OC)cc4)C(=O)C3C2C1 (stereo unspecified)	MDA-MB-231 breast	µM	32.3
Cc1ccc(S(=O)(=O)c2ccsc2NC(=O)C(F)(F)F)cc1	MDA-MB-231 breast	µM	56.2
CCOC1Oc2ccc(C)cc2C(=O)/C1=C\Nc1ccc(C(N)=O)cc1 (stereo unspecified)	MDA-MB-231 breast	µM	36
CCCCCCCCn1ccc2cc(NC(=O)Cn3cc(CN4CCCC4)nn3)ccc21	MDA-MB-231 breast	µM	3.49
CC(=O)c1sc2c(c1OC(=O)c1ccco1)c(=O)n(-c1ccccc1)c(=S)n2-c1ccccc1	MDA-MB-231 breast	µM	47.1
COc1ccc(/C=C2\CCC(C)C3C2=NN(c2ccccc2)C3c2ccc(OC)c(OC)c2)cc1OC (stereo unspecified)	MDA-MB-231 breast	µM	12.5
CCN(CC)CCCC(C)Nc1c2ccc(Cl)cc2nc2ccc(O)cc12 (stereo unspecified)	MDA-MB-231 breast	µM	5.39

---

- Tested on: M14 melanoma
- Assay notes: NCI tumour cell line growth inhibition, 48 h; in the data active = GI50 below about 0.43 µM; inactive = the rest
Possible outcomes: 1 (active), -1 (inactive)

Compound	Answer label
CCCn1c(=S)sc2c1nc(C)n1c(Nc3ccccc3)nnc21	-1
Nc1nccc(-c2c(-c3ccc(F)cc3)ncn2C2CCC(O)CC2)n1 (stereo unspecified)	-1
O=C(CC1C(=O)NN(c2ccc(Br)cc2)C1=O)c1cc(O)ccc1O (stereo unspecified)	-1
Cc1cc(-c2cnn3c(NCC4CC(C)(O)C4)cc(Oc4cccnc4)nc23)ccc1C(=O)NC1CC1 (stereo unspecified)	-1
Cc1ccc(-c2nc3nc(-c4ccccc4)nc(N4CCCNCC4)c3o2)cc1	-1
O=C(O)CCNC1CCCCC1	-1
CCCCCCCCn1ccc2cc(NC(=O)Cn3cc(CN4CCCC4)nn3)ccc21	-1
O=C1CCC(N2C(=O)c3ccccc3C2=O)C(=O)N1CO (stereo unspecified)	-1
C#CCNC(=O)c1cccc2c1cc(C)n2-c1nc2c(c(NCc3ccccc3)n1)CCCC2	1
COc1cc[nH]c1/C=C1\C(=O)Nc2ccc(F)c(C#CC3(O)CCNCC3)c21	1
O=S(=O)(NC1=NCCN1C(=S)SN1CCn2c1nsc2=S)c1cccc(Cl)c1	-1
